# experiment summary: soluble fraction after stress (log2 fold change); higher = more stays soluble; pooled small domains, quantitative proteomics
# test parameters: stress: pH 4
Mark 0.0 for soluble fraction (log2) values under -0.2, and 1.0 for everything at or above.

Query :: hey, is soluble fraction (log2) for this one >= -0.2? HMGGPAGPDFTYTGDDLTRIDYDDGSYKVFTYDAGKLSQIDFTSGGTTTRKTFVYSGDTLIRVDQTI
Result :: 0.0

Query :: Same for HMLGSVRTIRQVLDDGRLIVADGGGNPSVIRRSGALAHETFANGQRVIVDPSGRLALELLPD
Result :: 1.0

Next:
Query :: Reported soluble fraction (log2) at or above -0.2? HMKEADVRKNEILDAAGILFSEKGYDNTSVTDIMNAVGFAKGTLYHHFKSKEDIMDALIKRQTD
Result :: 0.0

Query :: Field entry: HMDIMTVGERVKKLAEKQGISLRELAKKAELSYNTVYSITRRGSERVAPDTISRLANALGVNVNELT
Result :: 1.0

Query :: Now try HMSESIFTLYGDEKFEKIRYYLKERGFITLDALARFDFDELLFVPGVSELLISEAKQLFSRYDTSSLAAKE .
Result :: 0.0

Query :: What do you get for HMFGELTPDTAKRFLLTAREQEMASLIAQGLTNKEIAFRLGISEATVRTHIYNLFQKVGVQSRIELLNVLH ?
Result :: 1.0

Query :: Now give it for HMGLQLTPVRRRVLEILLHEHRALGAYDILDKLRSEGLGSQPPVAYRALDFLVTHGFAHKIERLNAF too.
Result :: 1.0

Query :: Do the same for HMPQNVSVPDVTNMTQAEAESKLKEKNLAVGNIIPELSTTVEKDKVTRTNPESGSNVRKNSKVDIYVSQG please
Result :: 1.0

Query :: Ok, now HMSSTSTMTVAEATIGRKVKHDKFGEGTIITVADVNGDKKLTIAFNQQGVKMLMLSMAKLEL
Result :: 0.0

Query :: Also HMKHFNDEELDGFAGLKSDDYNEEQVELFRNIFEELHPDEIIEWTESLRRRGIEIPSSLKDEVVMMIN ?
Result :: 0.0

Query :: And HMAEPTLNERLREALSDPAKLKIAKAIKAKYPIITARDIDTFLNMHEKDIENGADPMDEFEEFFHANY ?
Result :: 1.0
